Ref: paper PMC5867622

- measured.target: porcine kidney microsomal aminopeptidase M (Sus scrofa, UniProt P15145)
- Construct: purchased Sigma-Aldrich (St. Louis, MO, USA); host or cells: porcine kidney microsomes
- experimental.protocol: Aminopeptidase M inhibitory assay
- Type: biochemical
- condition.label: Table 4; substrate L-leucine-p-nitroanilide, Tris-HCl pH 7.0, 37 °C; read-out: IC50 in μM ± SD
- Experimental: Aminopeptidase M inhibitory activity was determined according to the procedure described by Ishida et al.. […] The plate was incubated at 37 °C for 5 min; thereafter, 10 μL of porcine kidney microsomal aminopeptidase M [EC Number 232-942-5, Sigma-Aldrich (St. Louis, MO, USA), […] in 3.5 M (NH4)2SO4] was added to each well, and the absorbance at 405 nm was measured for 30 min. […]
Hi there, I'd appreciate the recorded IC50 for every entry that follows.
Numbers only, in µM.

-- ask Look up IC50 with porcine kidney microsomal aminopeptidase M (Sus scrofa, UniProt P15145) for this molecule: CN[C@H](CCCCCCCCl)[C@@H](O)C(=O)N[C@@H](Cc1ccc(O)cc1)C(=O)N(C)[C@@H](CC(C)C)C(=O)N1CCC[C@H]1C(=O)O
-- reply 3.8

Now take the following molecule into account.
-- ask Param readout = IC50; param system = porcine kidney microsomal aminopeptidase M (Sus scrofa, UniProt P15145); param query = CCCCCCC[C@@H](NC)[C@@H](O)C(=O)N[C@@H](Cc1ccc(O)cc1)C(=O)N(C)[C@@H](CC(C)C)C(=O)N1CCC[C@H]1C(=O)O ; response: value
-- reply 7.5

====

- measured.target: porcine kidney microsomal aminopeptidase M (Sus scrofa)
- Construct: purchased Sigma-Aldrich (St. Louis, MO, USA); host or cells: porcine kidney microsomes
- Sequence (P15145 1-963): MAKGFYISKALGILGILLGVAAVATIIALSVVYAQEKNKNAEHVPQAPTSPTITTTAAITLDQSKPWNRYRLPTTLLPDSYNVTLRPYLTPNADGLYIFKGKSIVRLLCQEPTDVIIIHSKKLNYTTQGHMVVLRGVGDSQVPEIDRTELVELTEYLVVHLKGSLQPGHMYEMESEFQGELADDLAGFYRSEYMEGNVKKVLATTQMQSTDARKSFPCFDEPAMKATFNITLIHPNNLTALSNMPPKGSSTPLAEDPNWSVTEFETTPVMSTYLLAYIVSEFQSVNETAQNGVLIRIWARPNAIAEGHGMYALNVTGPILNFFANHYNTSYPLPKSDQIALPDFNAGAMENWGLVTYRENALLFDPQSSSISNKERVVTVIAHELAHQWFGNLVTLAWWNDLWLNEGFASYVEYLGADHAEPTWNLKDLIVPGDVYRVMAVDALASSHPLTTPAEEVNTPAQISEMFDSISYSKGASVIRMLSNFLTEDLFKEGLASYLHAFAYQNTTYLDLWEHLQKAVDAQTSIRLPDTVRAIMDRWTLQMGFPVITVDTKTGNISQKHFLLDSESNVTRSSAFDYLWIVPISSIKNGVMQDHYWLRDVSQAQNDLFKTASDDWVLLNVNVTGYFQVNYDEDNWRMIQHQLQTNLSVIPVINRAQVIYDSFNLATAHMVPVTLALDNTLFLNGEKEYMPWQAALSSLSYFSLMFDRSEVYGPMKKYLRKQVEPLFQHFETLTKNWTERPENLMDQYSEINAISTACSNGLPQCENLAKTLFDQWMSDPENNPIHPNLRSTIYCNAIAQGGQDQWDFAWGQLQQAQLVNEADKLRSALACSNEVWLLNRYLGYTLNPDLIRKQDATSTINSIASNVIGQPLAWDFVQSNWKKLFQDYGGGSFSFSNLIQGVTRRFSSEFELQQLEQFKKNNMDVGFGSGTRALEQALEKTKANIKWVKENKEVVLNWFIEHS
- experimental.protocol: Aminopeptidase M inhibitory assay
- Assay type: biochemical
- condition.label: read-out: IC50 in μM ± SD; Table 4; substrate L-leucine-p-nitroanilide, Tris-HCl pH 7.0, 37 °C
Square brackets hold non-standard residues; d marks the D form. Peptide text beside a SMILES is read from it. * marks the point of attachment. X13 = CN[C@H](CCCCCCC(Cl)Cl)[C@@H](O)C(=O)*; X4 = CN[C@H](CCCCCCCCl)[C@@H](O)C(=O)*; X7 = N[C@H](CCCCCCCCl)[C@@H](O)C(=O)*; NMeL = CN[CH](CC(C)C)C(=O)O; X11 = CCCCCCCC(NC)C(O)C(=O)*
I'd appreciate it if you could supply IC50 values for the items below.
Answers are plain numbers, in µM.

-- ask Request body: readout IC50, system porcine kidney microsomal aminopeptidase M (Sus scrofa), query CCCCCCCC(NC)C(O)C(=O)NC(C(=O)N1CCCC1C(=O)NC(Cc1ccc(O)cc1)C(=O)NC(Cc1ccc(O)cc1)C(=O)O)C(C)O (centres unmarked) [Microginin FR4] (X11-TPYY-OH; configuration not given here) . Return the value.
-- reply 1.8

-- ask # returns recorded IC50 (system: porcine kidney microsomal aminopeptidase M (Sus scrofa)) for CCCCCCCC(NC)C(O)C(=O)NC(Cc1ccc(O)cc1)C(=O)N(C)C(CC(C)C)C(=O)N1CCCC1C(=O)NC(Cc1ccc(O)cc1)C(=O)O (centres unmarked) [Microginin KR767] (X11-Y[NMeL]PY-OH; configuration not given here)
-- reply 0.5

-- ask Short answer please: IC50, porcine kidney microsomal aminopeptidase M (Sus scrofa), entry CC(C)C[C@@H](C(=O)N1CCC[C@H]1C(=O)N[C@@H](Cc1ccc(O)cc1)C(=O)O)N(C)C(=O)[C@H](Cc1ccc(O)cc1)NC(=O)[C@H](O)[C@H](N)CCCCCCCCl [Microginin KR787] (X7-Y[NMeL]PY-OH)
-- reply 5.7

-- ask porcine kidney microsomal aminopeptidase M (Sus scrofa) / IC50 / CN[C@H](CCCCCCC(Cl)Cl)[C@@H](O)C(=O)N[C@@H](Cc1ccc(O)cc1)C(=O)N(C)[C@@H](CC(C)C)C(=O)N1CCC[C@H]1C(=O)N[C@@H](Cc1ccc(O)cc1)C(=O)O [Microginin KR835] (X13-Y[NMeL]PY-OH) : value?
-- reply 0.4

# evaluate next
-- ask Recorded IC50 for CN[C@H](CCCCCCCCl)[C@@H](O)C(=O)N[C@@H](Cc1ccc(O)cc1)C(=O)N(C)[C@@H](CC(C)C)C(=O)N1CCC[C@H]1C(=O)N[C@@H](Cc1ccc(O)cc1)C(=O)O [Microginin KR801] (X4-Y[NMeL]PY-OH) with porcine kidney microsomal aminopeptidase M (Sus scrofa), please?
-- reply 0.1

====

- measured.target: porcine kidney microsomal aminopeptidase M (Sus scrofa)
- Construct: purchased Sigma-Aldrich (St. Louis, MO, USA); host or cells: porcine kidney microsomes
- experimental.protocol: Aminopeptidase M inhibitory assay
- Assay type: biochemical
- condition.label: read-out: Activity: APM; Table S1; source 14 = this manuscript
Square brackets hold non-standard residues; d marks the D form. Peptide text beside a SMILES is read from it. * marks the point of attachment. X13 = CN[C@H](CCCCCCC(Cl)Cl)[C@@H](O)C(=O)*; X4 = CN[C@H](CCCCCCCCl)[C@@H](O)C(=O)*; X7 = N[C@H](CCCCCCCCl)[C@@H](O)C(=O)*; NMeL = CN[CH](CC(C)C)C(=O)O; X11 = CCCCCCCC(NC)C(O)C(=O)*
Would you mind telling me the reported IC50 of each entry?
One number for each entry, in nM.

Consider the reported IC50 for these molecules:
-- ask Hello, I am looking for reported IC50 with porcine kidney microsomal aminopeptidase M (Sus scrofa) for CC(C)C[C@@H](C(=O)N1CCC[C@H]1C(=O)N[C@@H](Cc1ccc(O)cc1)C(=O)O)N(C)C(=O)[C@H](Cc1ccc(O)cc1)NC(=O)[C@H](O)[C@H](N)CCCCCCCCl [Microginin KR787] (X7-Y[NMeL]PY-OH) . Could you help?
-- reply 5.7

-- ask Report IC50 for CCCCCCCC(NC)C(O)C(=O)NC(C(=O)N1CCCC1C(=O)NC(Cc1ccc(O)cc1)C(=O)NC(Cc1ccc(O)cc1)C(=O)O)C(C)O (centres unmarked) [Microginin FR4] (X11-TPYY-OH; configuration not given here) tested on porcine kidney microsomal aminopeptidase M (Sus scrofa).
-- reply 1.8

-- ask Lab note: need IC50 with porcine kidney microsomal aminopeptidase M (Sus scrofa) for entry CCCCCCCC(NC)C(O)C(=O)NC(Cc1ccc(O)cc1)C(=O)N(C)C(CC(C)C)C(=O)N1CCCC1C(=O)NC(Cc1ccc(O)cc1)C(=O)O (centres unmarked) [Microginin KR767] (X11-Y[NMeL]PY-OH; configuration not given here) , please look it up.
-- reply 0.5

-- ask Provide the documented IC50 with porcine kidney microsomal aminopeptidase M (Sus scrofa) as the system for CN[C@H](CCCCCCC(Cl)Cl)[C@@H](O)C(=O)N[C@@H](Cc1ccc(O)cc1)C(=O)N(C)[C@@H](CC(C)C)C(=O)N1CCC[C@H]1C(=O)N[C@@H](Cc1ccc(O)cc1)C(=O)O [Microginin KR835] (X13-Y[NMeL]PY-OH)
-- reply 0.4

Let us examine a further case.
-- ask Observed IC50 on porcine kidney microsomal aminopeptidase M (Sus scrofa) for CN[C@H](CCCCCCCCl)[C@@H](O)C(=O)N[C@@H](Cc1ccc(O)cc1)C(=O)N(C)[C@@H](CC(C)C)C(=O)N1CCC[C@H]1C(=O)N[C@@H](Cc1ccc(O)cc1)C(=O)O [Microginin KR801] (X4-Y[NMeL]PY-OH) , please.
-- reply 0.1
